Data credit: patent US20090136495A1

Biological target: T1, human hepcidin-25 (human, not fully specified)
T1 construct: also called human mature hepcidin
T1 peptide: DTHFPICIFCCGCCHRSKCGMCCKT
Assay: SPR (BIAcore), Mab captured on protein A, human hepcidin-25 injected, 25 C
OUTCOME MEASURE: Kd (nM)
Numeric answer only, unit nM assumed.

Some solved entries appear below for comparison.
1) Mab 3.23 (antibody, human IgG4 S228P, kappa, V domains shown) VH: QVQLVQSGAEVKKPGSSVKVSCKASGYTFLIYPISWVRQAPGQGLEWMGNFHPYLGVTNYVEKFKGRVTITADKSTSTAYMELSSLRSEDTAVYYCARGGTGSFDYWGQGTTVTVSS VL: DIQMTQSPSSLSASVGDRVTITCSASSRVSSTYLFWYQQKPGKAPKLLIYRTSPLASGVPSRFSGSGSGTDFTLTISSLQPEDFATYYCQQWSGYPFVFGGGTKVEIKR | 0.0994
2) Mab Hu22 (antibody, human IgG4 S228P, kappa, V domains shown) VH: QVQLVQSGAEVKKPGSSVKVSCKASGYTFTIYPISWVRQAPGQGLEWMGNFHPYLGDTNYNEKFKGRVTITADKSTSTAYMELSSLRSEDTAVYYCARGGTGSFDYWGQGTTVTVSS VL: DIQMTQSPSSLSASVGDRVTITCSASSRVSSTYLFWYQQKPGKAPKLLIYRTSTLASGVPSRFSGSGSGTDFTLTISSLQPEDFATYYCQQWSGYPFTFGGGTKVEIKR | 0.764

# get_value(readout='Kd', item= Mab L1.5 (antibody, human IgG4 S228P, kappa, V domains shown) VH: QVQLVQSGAEVKKPGSSVKVSCKASGYTFLIYPISWVRQAPGQGLEWMGNFHPYLGVTNYLEKFKGRVTITADKSTSTAYMELSSLRSEDTAVYYCARGGTGSFDYWGQGTTVTVSS VL: DIQMTQSPSSLSASVGDRVTITCSAESRVSSTYLFWYQQKPGKAPKLLIYRTSPLASGVPSRFSGSGSGTDFTLTISSLQPEDFATYYCQQWSGYPFTFGGGTKVEIKR )
0.0342
